Hey, just so you know, these numbers are from patent US4395399A.

Please respond with reported Death of animals for every item in the list.
System: 8-day Krocker sarcoma (S-180)
Conditions: dose 250 mg/kg, intravenous, mice with sarcoma S-180

{"columns": ["compound", "tested_on", "Death of animals"],
 "data": [
  ["CC(=O)N[C@H]1C(O[C@H]2[C@H](O[C@H](C)C(=O)O)[C@@H](NC(C)=O)C(O[C@H]3[C@H](O)[C@@H](NC(C)=O)C(O[C@H]4[C@H](O[C@H](C)C(=O)O)[C@@H](NC(C)=O)C(O)O[C@@H]4CO)O[C@@H]3CO)O[C@@H]2CO)O[C@H](CO)[C@@H](O)[C@@H]1O (stereo partly shown)", "8-day Krocker sarcoma (S-180)", 0],
  ["CC(=O)N[C@H]1C(O)O[C@H](CO)[C@@H](O)[C@@H]1O[C@H](C)C(=O)O (stereo partly shown)", "8-day Krocker sarcoma (S-180)", 25],
  ["CC(=O)N[C@H]1C(O[C@H]2[C@H](O[C@H](C)C(=O)O)[C@@H](NC(C)=O)C(O)O[C@@H]2CO)O[C@H](CO)[C@@H](O)[C@@H]1O (stereo partly shown)", "8-day Krocker sarcoma (S-180)", 0]
]}

Shifting focus to the compound that follows.
Ask: For the record CC(=O)N[C@H]1C(O)O[C@H](CO)[C@@H](O)[C@@H]1O (stereo partly shown) , what value of Death of animals is listed for 8-day Krocker sarcoma (S-180)?
Reply: 0
